- Tested on: human G-CSF (G21) promoter
- protocol description: High-throughput luciferase reporter assay, G-CSF promoter (Screen III)
- experimental conditions: Screen III activators; G21 cells; 6 hours
Entries are sorted into classes by FOLD INDUCTION RELATIVE TO SOLVENT CONTROL, GCSF as follows: low band (below 1 fold), middle band (1 fold to below 4 fold), high band (4 fold or more)

| molecule | system under test | class |
| --- | --- | --- |
| CC(CCl)CBr (stereo not shown) | human G-CSF (G21) promoter | middle band |
| CCN(CC)CCCC(C)Nc1c2ccc(Cl)cc2nc2ccc(OC)cc12 (stereo not shown) | human G-CSF (G21) promoter | middle band |
| O=C(Nc1cccc(C2=NCCN2)c1)Nc1cccc(C2=NCCN2)c1 | human G-CSF (G21) promoter | low band |
| Nc1nc(N)nc(N)n1 | human G-CSF (G21) promoter | middle band |
| Nc1c2ccccc2nc2ccccc12 | human G-CSF (G21) promoter | high band |
| O=c1[nH]c(=O)n([C@H]2C[C@H](O)[C@@H](CO)O2)cc1Br | human G-CSF (G21) promoter | high band |
| O=NN(O)c1ccccc1 | human G-CSF (G21) promoter | high band |
| NC1=NCCS1 | human G-CSF (G21) promoter | middle band |
| CCn1c(=O)[nH]c2ccccc21 | human G-CSF (G21) promoter | low band |
| Cc1cc(N)sn1 | human G-CSF (G21) promoter | middle band |
| CC(=O)OCC(=O)[C@@]1(O)CC[C@H]2[C@@H]3CCC4=CC(=O)C=C[C@]4(C)[C@H]3[C@@H](O)C[C@@]21C | human G-CSF (G21) promoter | low band |
| NC(=O)N1c2ccccc2CCc2ccccc21 | human G-CSF (G21) promoter | low band |
| CC(=O)N(C)c1ccc(N)cc1 [Chemical #1374, 4'-Amino-N-methylacetanilide] | human G-CSF (G21) promoter | high band |
| Brc1ccc2c3c(cccc13)CC2 | human G-CSF (G21) promoter | middle band |
| N=c1ccc2nc3ccc(N)cc3sc-2c1 | human G-CSF (G21) promoter | middle band |
| Nc1c(Cl)ncnc1Cl | human G-CSF (G21) promoter | low band |
| ClCc1ccc(Cl)cc1 | human G-CSF (G21) promoter | middle band |
| COc1c(F)cc(Br)cc1[N+](=O)[O-] | human G-CSF (G21) promoter | high band |
| Cc1ccc(C(=O)c2ccccc2N)cc1 | human G-CSF (G21) promoter | middle band |
| Nc1nc(-c2ccccc2)cs1 | human G-CSF (G21) promoter | low band |
